B1: Pistol ribozyme (parent)
chain: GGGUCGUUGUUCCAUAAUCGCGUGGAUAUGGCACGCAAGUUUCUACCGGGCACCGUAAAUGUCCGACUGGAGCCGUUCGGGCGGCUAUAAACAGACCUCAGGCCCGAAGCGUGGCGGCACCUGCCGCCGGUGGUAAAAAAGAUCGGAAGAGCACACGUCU

# Variants of: B1
# procedure.details: aptazyme ON/OFF ratio, guanine; higher = stronger switching; co-transcriptional cleavage with and without guanine
Below, each of the variants is paired with its reported aptazyme ON/OFF ratio value.

>  <mutation.string>
U7C U8A G9A U10G U11G C12A C13A

>  <aptazyme ON/OFF ratio>
1.19

$$$$
>  <mutation.string>
U8A C13G

>  <aptazyme ON/OFF ratio>
1.11

$$$$
>  <mutation.string>
U7C U8G G9C U10C C12G C13G

>  <aptazyme ON/OFF ratio>
1.09

$$$$
>  <mutation.string>
U8C G9C U10G U11G C12A C13A

>  <aptazyme ON/OFF ratio>
1.08

$$$$
>  <mutation.string>
U7C G9U U11A C12G C13A

>  <aptazyme ON/OFF ratio>
1.2

$$$$
>  <mutation.string>
U7G G9A U10G C12U C13G

>  <aptazyme ON/OFF ratio>
1.11

$$$$
>  <mutation.string>
U7C G9C U11C C12A

>  <aptazyme ON/OFF ratio>
1.03

$$$$
>  <mutation.string>
U7G U8C G9A U10C U11C C13A

>  <aptazyme ON/OFF ratio>
1.02

$$$$
>  <mutation.string>
U7C G9A U10A U11C C13U

>  <aptazyme ON/OFF ratio>
1.07

$$$$
>  <mutation.string>
U7C U8G G9A C13G

>  <aptazyme ON/OFF ratio>
1.05

$$$$
>  <mutation.string>
U8G G9C U10G U11C C13A

>  <aptazyme ON/OFF ratio>
1.05

$$$$
>  <mutation.string>
U7A G9A U10G U11A

>  <aptazyme ON/OFF ratio>
1.06

$$$$
>  <mutation.string>
U7G U8C G9A U10G C12A C13A

>  <aptazyme ON/OFF ratio>
1.07

$$$$
>  <mutation.string>
U7C U8A G9A U11A C12G C13U

>  <aptazyme ON/OFF ratio>
1.19

$$$$
>  <mutation.string>
U7A G9A U10C C12G C13G

>  <aptazyme ON/OFF ratio>
1.17

$$$$
>  <mutation.string>
U8G G9C U10A U11C C12G C13U

>  <aptazyme ON/OFF ratio>
1.14

$$$$
>  <mutation.string>
U7A U8C G9A U10A U11C C12A C13A

>  <aptazyme ON/OFF ratio>
1.14

$$$$
>  <mutation.string>
G9A U11C C12A C13A

>  <aptazyme ON/OFF ratio>
1.06

$$$$
>  <mutation.string>
U10A U11A C13A

>  <aptazyme ON/OFF ratio>
1.31

$$$$
>  <mutation.string>
U7C U8C G9A U10A U11C C12G C13G

>  <aptazyme ON/OFF ratio>
1.4

$$$$
>  <mutation.string>
U7C U8A G9A U11G C12A C13A

>  <aptazyme ON/OFF ratio>
1.19

$$$$
>  <mutation.string>
U8C U11G C13U

>  <aptazyme ON/OFF ratio>
1.17

$$$$
>  <mutation.string>
U7A G9U C12U C13A

>  <aptazyme ON/OFF ratio>
1.19

$$$$
>  <mutation.string>
U7C G9U U10G C12U

>  <aptazyme ON/OFF ratio>
1.39

$$$$
>  <mutation.string>
U8A U10C U11G C12A C13A

>  <aptazyme ON/OFF ratio>
1.26

$$$$
>  <mutation.string>
U7C U10G U11C C13A

>  <aptazyme ON/OFF ratio>
1.08

$$$$
>  <mutation.string>
U7A U8G G9A U10A U11A C12U

>  <aptazyme ON/OFF ratio>
1.31

$$$$
>  <mutation.string>
U7G U8G G9C U10C U11A C12A

>  <aptazyme ON/OFF ratio>
1.3

$$$$
>  <mutation.string>
U7G U8A G9C U10C U11G C12G C13A

>  <aptazyme ON/OFF ratio>
1.02

$$$$
>  <mutation.string>
U7G U10G U11C C12U C13U

>  <aptazyme ON/OFF ratio>
1.25

$$$$
>  <mutation.string>
U7C U8G U10A U11G C12U

>  <aptazyme ON/OFF ratio>
1.2

$$$$
>  <mutation.string>
U7G U8A G9U U10G U11C C12U

>  <aptazyme ON/OFF ratio>
1.05

$$$$
>  <mutation.string>
U7C U8A G9C U11C C12A C13A

>  <aptazyme ON/OFF ratio>
1.04

$$$$
>  <mutation.string>
U8G U10A C12A C13A

>  <aptazyme ON/OFF ratio>
1.26

$$$$
>  <mutation.string>
U7C U8A U10G U11A C12A

>  <aptazyme ON/OFF ratio>
1.22

$$$$
>  <mutation.string>
U7C U8A G9C C12G

>  <aptazyme ON/OFF ratio>
1.13

$$$$
>  <mutation.string>
U7C U8G U10G C13A

>  <aptazyme ON/OFF ratio>
1.4

$$$$
>  <mutation.string>
U7G U8C U11C

>  <aptazyme ON/OFF ratio>
1.53

$$$$
>  <mutation.string>
U7G G9U U10G U11A C13A

>  <aptazyme ON/OFF ratio>
1.15

$$$$
>  <mutation.string>
U7C U8G G9A U10G C12U C13A

>  <aptazyme ON/OFF ratio>
1.46

$$$$
>  <mutation.string>
G9U U10G U11A

>  <aptazyme ON/OFF ratio>
1.2

$$$$
>  <mutation.string>
U7C G9U U10A C12A

>  <aptazyme ON/OFF ratio>
1.82

$$$$
>  <mutation.string>
G9C U11G C12A C13A

>  <aptazyme ON/OFF ratio>
1.14

$$$$
>  <mutation.string>
U7G U8G G9U U11C C13U

>  <aptazyme ON/OFF ratio>
1.41

$$$$
>  <mutation.string>
U7C U8G G9C U10A C12U C13A

>  <aptazyme ON/OFF ratio>
1.21

$$$$
>  <mutation.string>
U8G U10A C12A

>  <aptazyme ON/OFF ratio>
1.48

$$$$

These measurements were taken from the RNAGym collection of RNA variant scans (doi:10.1021/acssynbio.7b00057).
